Value source: patent US20240301076A1

As shown below, each of these binders has a reported Fold change in binding relative to BKO-4A8 value.
# STUDY SYSTEM: T1, human CXCR2 (human, UniProt P25025 1-360)
# T1 construct: also called CXC chemokine receptor 2; hCXCR2
# T1 sequence: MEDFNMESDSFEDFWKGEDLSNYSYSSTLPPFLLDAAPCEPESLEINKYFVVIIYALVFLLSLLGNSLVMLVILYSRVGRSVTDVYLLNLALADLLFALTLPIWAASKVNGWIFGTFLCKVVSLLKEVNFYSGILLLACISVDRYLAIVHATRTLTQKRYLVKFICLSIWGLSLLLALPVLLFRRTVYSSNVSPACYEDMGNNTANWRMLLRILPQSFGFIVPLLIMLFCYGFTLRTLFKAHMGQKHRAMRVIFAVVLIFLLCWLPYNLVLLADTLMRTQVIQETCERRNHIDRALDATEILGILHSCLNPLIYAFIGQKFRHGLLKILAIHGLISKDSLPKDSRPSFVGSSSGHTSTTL
# ASSAY NOTES: flow cytometry, CXCR2-transfected Expi293F cells
Write it as a number; the unit fold goes unstated.

BINDER	TEST VALUE
BKO-4A8 variant VL E50D (antibody, human IgG4 S228P, lambda, V domains shown, IgG4 S228P, lambda; parental heavy chain; also called 4A8 VL E50D) VH: EVQLLESGGGLVQPGGSLRLSCAASGFTFSSSTMSWVRQAPGKGLEWVSAISGRGRNTYYADSVKGRFTISRDNSRNTLYLQMNSLRAEDTAVYYCAIQMGYWGQGILVTVSS VL: QSALTQPPSASGSPGQSVTISCIGTSSDVGGYNYVSWYQQHPDKAPKLMIYDVNKRPSGVPDRFSGSKSGNTASLTVSGLQAEDEADYYCSSYAGNNNFGVFGGGTKLTVLG	2
BKO-4A8 variant VL K53H (antibody, human IgG4 S228P, lambda, V domains shown, IgG4 S228P, lambda; parental heavy chain; also called 4A8 VL K53H) VH: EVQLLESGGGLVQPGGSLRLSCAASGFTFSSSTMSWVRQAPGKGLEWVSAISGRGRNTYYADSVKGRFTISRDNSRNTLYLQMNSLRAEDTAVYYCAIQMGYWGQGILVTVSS VL: QSALTQPPSASGSPGQSVTISCIGTSSDVGGYNYVSWYQQHPDKAPKLMIYEVNHRPSGVPDRFSGSKSGNTASLTVSGLQAEDEADYYCSSYAGNNNFGVFGGGTKLTVLG	1.4
BKO-4A8 variant VH R53S (antibody, human IgG4 S228P, lambda, V domains shown, IgG4 S228P, lambda; parental light chain; also called 4A8 VH R53S) VH: EVQLLESGGGLVQPGGSLRLSCAASGFTFSSSTMSWVRQAPGKGLEWVSAISGSGRNTYYADSVKGRFTISRDNSRNTLYLQMNSLRAEDTAVYYCAIQMGYWGQGILVTVSS VL: QSALTQPPSASGSPGQSVTISCIGTSSDVGGYNYVSWYQQHPDKAPKLMIYEVNKRPSGVPDRFSGSKSGNTASLTVSGLQAEDEADYYCSSYAGNNNFGVFGGGTKLTVLG	1

Query string: What does the record list as Fold change in binding relative to BKO-4A8 for BKO-4A8 variant VH G101D (antibody, human IgG4 S228P, lambda, V domains shown, IgG4 S228P, lambda; parental light chain; also called 4A8 VH G101D) VH: EVQLLESGGGLVQPGGSLRLSCAASGFTFSSSTMSWVRQAPGKGLEWVSAISGRGRNTYYADSVKGRFTISRDNSRNTLYLQMNSLRAEDTAVYYCAIQMDYWGQGILVTVSS VL: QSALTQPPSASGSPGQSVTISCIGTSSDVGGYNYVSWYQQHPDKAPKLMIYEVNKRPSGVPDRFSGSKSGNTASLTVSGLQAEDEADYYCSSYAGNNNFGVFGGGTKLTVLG ?
Result string: 1

Query string: What does the record list as Fold change in binding relative to BKO-4A8 for BKO-4A8 variant VL V97K (antibody, human IgG4 S228P, lambda, V domains shown, IgG4 S228P, lambda; parental heavy chain; also called 4A8 VL V97K) VH: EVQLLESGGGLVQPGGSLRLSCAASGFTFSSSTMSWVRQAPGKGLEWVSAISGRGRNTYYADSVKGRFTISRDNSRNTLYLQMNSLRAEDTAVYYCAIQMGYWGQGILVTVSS VL: QSALTQPPSASGSPGQSVTISCIGTSSDVGGYNYVSWYQQHPDKAPKLMIYEVNKRPSGVPDRFSGSKSGNTASLTVSGLQAEDEADYYCSSYAGNNNFGKFGGGTKLTVLG ?
Result string: 1

Query string: What does the record list as Fold change in binding relative to BKO-4A8 for BKO-4A8 variant VL K53A (antibody, human IgG4 S228P, lambda, V domains shown, IgG4 S228P, lambda; parental heavy chain; also called 4A8 VL K53A) VH: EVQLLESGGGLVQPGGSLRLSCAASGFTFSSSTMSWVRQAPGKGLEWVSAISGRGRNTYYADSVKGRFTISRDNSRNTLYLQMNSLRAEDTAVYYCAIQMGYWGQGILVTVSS VL: QSALTQPPSASGSPGQSVTISCIGTSSDVGGYNYVSWYQQHPDKAPKLMIYEVNARPSGVPDRFSGSKSGNTASLTVSGLQAEDEADYYCSSYAGNNNFGVFGGGTKLTVLG ?
Result string: 1.4

Query string: What does the record list as Fold change in binding relative to BKO-4A8 for BKO-4A8 variant VL N95aH (antibody, human IgG4 S228P, lambda, V domains shown, IgG4 S228P, lambda; parental heavy chain; also called 4A8 VL N95aH) VH: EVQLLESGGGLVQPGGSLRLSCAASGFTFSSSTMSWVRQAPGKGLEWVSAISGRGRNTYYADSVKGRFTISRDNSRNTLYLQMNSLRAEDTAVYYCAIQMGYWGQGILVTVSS VL: QSALTQPPSASGSPGQSVTISCIGTSSDVGGYNYVSWYQQHPDKAPKLMIYEVNKRPSGVPDRFSGSKSGNTASLTVSGLQAEDEADYYCSSYAGNNHFGVFGGGTKLTVLG ?
Result string: 1.3
